system: CAKI-1 renal; test: NCI tumour cell line growth inhibition, 48 h
Please provide measured log10 TGI for the entries that follow.
Scale: decimal log of TGI, TGI in µM.

Solved cases (4 shown):
{"columns": ["mol", "log10 TGI"],
 "data": [
  ["C=C(C)C(=O)O[C@H]1[C@H]2[C@H](OC(=O)[C@H]2C)[C@H](O)[C@@H](C)[C@@H]2C=CC(=O)[C@]21C", 0.75],
  ["Cc1cccc(NC(=S)Nc2ccccc2Cl)n1", 1.98],
  ["COCCOCCOC1=C(Cl)C(=O)c2c(O)ccc(O)c2C1=O", 0.50],
  ["CC(=O)Oc1ccc(O)c(O)c1C/C=C(\\C)CC/C=C(\\C)CC/C=C(\\C)CCC=C(C)C", 0.90]
]}

Switching to the query record.
Field request: log10 TGI | item: `COc1cc(Cn2c3c(c4c(C(=O)NCCN(C)C)c(O)ccc42)C(=O)c2ccccc2C3=O)cc(OC)c1`
0.51

----------
system: SNB-19 CNS; assay: NCI tumour cell line growth inhibition, 48 h
Please provide measured TGI for the entries that follow.

{"columns": ["compound", "TGI"],
 "data": [
  ["CC(C)=CCC/C(C)=C/CC/C(C)=C/CC/C(C)=C/CC/C(C)=C\\CC/C(C)=C/CC/C(C)=C/CC/C(C)=C/Cc1cc(O)ccc1O", "> 43.6 µM"]
]}

Report TGI for each item below.
1. CCC(=O)O[C@H]1CC[C@H]2[C@@H]3CCC4=C/C(=N/NC(=O)c5cccc6c(=O)c7ccccc7[nH]c56)CC[C@]4(C)[C@H]3CC[C@]12C
2. CC(C)C1CC(O)O[C@@H]([C@@H](C)[C@H]2CC(=O)[C@@H]3[C@@H]4[C@@H](O)[C@H](O)[C@H]5[C@@H](O)[C@H](O)CC[C@]5(C)[C@H]4CC[C@]23C)C1 (stereo partly drawn)
3. O=S1C2=C(Cc3ccccc3)C(Cc3ccccc3)=C1CCc1cccc(c1)CC2
4. Cc1cccc2c1NC(=S)[C@@H]1CCCN1C2=O
5. COC(=O)c1c(C)cccc1/C=C1\Cc2cc(C)cc(C)c2C1=O
6. CC(C)(C)c1ccc(S(=O)(=O)N[C@H]2CC[C@H]3[C@@H]4CCc5cc(OS(=O)(=O)O)ccc5[C@H]4CC[C@]23C)cc1
7. CC(=O)NC1=C(C)C(=O)c2c(nc3n2CCC3O)C1=N (stereo not drawn)

> 25 µM
> 100 µM
28.1 µM
> 100 µM
> 100 µM
13.8 µM
50.4 µM

----------
tested on: NCI-H226 lung; experiment: NCI tumour cell line growth inhibition, 48 h
Please provide measured TGI for the entries that follow.
Answers are plain numbers, in µM.

{"columns": ["mol", "units.of.measure", "value.measured"],
 "data": [
  ["CC(C)(C)c1ccc(S(=O)(=O)N[C@H]2CC[C@H]3[C@@H]4CCc5cc(OS(=O)(=O)O)ccc5[C@H]4CC[C@]23C)cc1", "µM", 3.06]
]}

Switching to the query record.
Field request: TGI | item: `O=C1/C(=C/c2ccc(O)cc2)COc2ccc(-c3ccccc3)cc21`
39.2

----------
test system: M14 melanoma; test: NCI tumour cell line growth inhibition, 48 h
Threshold rule: TGI greater than or equal to 30 µM is y; below that, n.

Reference set, count: 6
{"columns": ["molecule", "discrete.label"],
 "data": [
  ["N#C/C(=C\\c1cccc(O)c1)C(N)=O", "y"],
  ["Cc1cccc2c1NC(=S)[C@@H]1CCCN1C2=O", "y"],
  ["COC(=O)/N=[N+](\\[O-])C(c1ccc(OC)cc1)C1CCCCC1 (stereo unspecified)", "n"],
  ["C[C@H]1[C@H](C)CC[C@]2(C(=O)O)CC[C@]3(C)C(=CC[C@@H]4[C@@]5(C)C/C(=C/c6cccnc6)[C@H](O)C(C)(C)[C@@H]5CC[C@]43C)[C@H]12", "y"],
  ["Cc1nc2c(sc3nc4ccccc4n32)c(=O)[nH]1", "y"],
  ["O=C1C2=C(c3ccccc31)C(c1ccccc1)NC(=S)N2 (stereo unspecified)", "y"]
]}

Does `CCOC(=O)NN1C(=O)C(=P(c2ccccc2)(c2ccccc2)c2ccccc2)C(C(=O)OCC)=C1C` have a reported TGI of at least 30 µM?
y

Does O=C(CC(C(=O)c1ccoc1)c1ccco1)c1ccco1 (stereo unspecified) have a reported TGI of at least 30 µM?
y

Does `COC(=O)c1cc(C#Cc2cc(OC)ccc2OC)ccc1OC` have a reported TGI of at least 30 µM?
y

Does `O=C(CSC(=S)N1CCOCC1)Nc1nc2c(s1)CCCC2` have a reported TGI of at least 30 µM?
y

Does `CC/C=C\C/C=C\C/C=C\CCCCCCCC(=O)OCC` have a reported TGI of at least 30 µM?
y

Does COC(=O)CCC12CCC(O1)c1ccccc12 (stereo unspecified) have a reported TGI of at least 30 µM?
y

Does `CC[C@@H](/C=C\CCC1(C[C@H](O)CCC=C(C)C)OCCO1)O[Si](C(C)C)(C(C)C)C(C)C` have a reported TGI of at least 30 µM?
y

Does `Brc1ccc2[nH]cc(-c3nc(-c4c[nH]c5ccccc45)cs3)c2c1` have a reported TGI of at least 30 µM?
n

Does `C#C[C@]1(O)CC[C@H]2[C@@H]3CCc4cc(OC(=O)c5cccc6cc7ccccc7nc56)ccc4[C@H]3CC[C@@]21C` have a reported TGI of at least 30 µM?
y

Does `O=[N+]([O-])c1cn[n+]([O-])c2ccccc12` have a reported TGI of at least 30 µM?
n

Does `Cc1cc2c3ccccc3n(C)c2c2c1C(=O)C=CC2=O` have a reported TGI of at least 30 µM?
y

Does CCCCOC(=O)C(O)Cc1ccoc1 (stereo unspecified) have a reported TGI of at least 30 µM?
y

Does `CSc1ccc(/C=C2\N=C(c3ccccc3)N(c3nc4ccc(Sc5ccccc5)cc4[nH]3)C2=O)cc1` have a reported TGI of at least 30 µM?
y

Does COc1cc([C@@H]2c3cc4c(cc3[C@@H](NC(=O)c3ccccc3)C3COC(=O)[C@@H]32)OCO4)cc(OC)c1O (stereo partly specified) have a reported TGI of at least 30 µM?
n

----------
tested on: U251 CNS; assay: NCI tumour cell line growth inhibition, 48 h
Please provide measured TGI for the entries that follow.

{"columns": ["compound", "system.tested", "TGI"],
 "data": [
  ["CN(C)c1ccc(/C=C/C=C(/C#N)c2ccccc2)cc1", "U251 CNS", "55.5 µM"],
  ["COc1cccc(NC(=O)CC(=O)N2N=C(C)C(N=Nc3ccc(S(=O)(=O)c4ccc(N=NC5C(=O)N(C(=O)CC(=O)Nc6cccc(OC)c6)N=C5C)cc4)cc3)C2=O)c1 (stereo not given)", "U251 CNS", "> 100 µM"],
  ["CC(=O)n1c2ccccc2c2nc3nc(Oc4ccc(C)cc4)c4ccccc4c3cc21", "U251 CNS", "> 100 µM"],
  ["COCc1cc2c(cc1/C=C/[N+](=O)[O-])OCO2", "U251 CNS", "31.6 µM"],
  ["C(=C\\C(SCc1ccccc1)SCc1ccccc1)/c1ccccc1", "U251 CNS", "> 10 µM"],
  ["COc1ccc(C2S/C(=C\\c3ccc(O)cc3)C(=O)N2NC(=O)Cc2ccccc2)cc1 (stereo not given)", "U251 CNS", "> 100 µM"],
  ["Cn1nc(-c2ccccc2)c(C(=O)/C=C/c2ccccc2)c(N2CCOCC2)c1=O", "U251 CNS", "29.4 µM"],
  ["COc1ccc(CCNC(=O)Cc2cc(OC)c(OC)cc2CO)cc1OC", "U251 CNS", "> 100 µM"],
  ["COC(=O)c1cc(C#Cc2cc(OC)ccc2OC)ccc1OC", "U251 CNS", "> 100 µM"]
]}

Switching to the query record.
Field request: TGI | item: `CC(=O)Nc1ccc2c(c1)oc(=O)c1cc(NC(C)=O)ccc12`
> 100 µM

----------
system: LOX IMVI melanoma; assay: NCI tumour cell line growth inhibition, 48 h; in the data active = GI50 below about 0.43 µM; inactive = the rest
Choose the fitting class; nothing outside class 1 = active, class 0 = inactive is accepted.

Reference set, count: 2
{"columns": ["compound", "system.tested", "discrete.label"],
 "data": [
  ["CC1OC2CC(=O)OC2C2=C1C(=O)c1c(O)c3c(c(O)c1C2=O)C1CC(O)C3(O)C(C)O1 (stereo unspecified)", "LOX IMVI melanoma", "class 1"],
  ["CC(=O)OCC1OC(n2ccc(=O)[nH]c2=O)C(OC(C)=O)C1OC(C)=O (stereo unspecified)", "LOX IMVI melanoma", "class 0"]
]}

Assay result, entry `OCc1ccc(-c2nn(Cc3ccccc3)c3ccccc23)o1` — outcome?
class 0

Assay result, entry `CN(CCOc1ccc(C#N)cc1)CCOc1ccc(C#N)cc1` — outcome?
class 0

Assay result, entry `Clc1nc(Cl)c2ncn(Cc3ccc(COc4cccc(OCc5ccc(Cn6cnc7c(Cl)nc(Cl)nc76)cc5)c4)cc3)c2n1` — outcome?
class 0

Assay result, entry `CC[C@H](CC#N)OC(=O)N[C@@H](C)c1cccc(NC(=O)Nc2ccc(-c3cnco3)c(OC)c2)c1` — outcome?
class 1

Assay result, entry `Clc1nc(Cl)c2c(ncn2C/C=C\Cn2cnc3c(Cl)nc(Cl)nc32)n1` — outcome?
class 0

Assay result, entry `c1cnc2[nH]cc(-c3csc(-c4cn(CCCCN5CCOCC5)c5ccccc45)n3)c2c1` — outcome?
class 0

Assay result, entry `COc1cc[nH]c1/C=C1\C(=O)Nc2ccc(F)c(I)c21` — outcome?
class 0

Assay result, entry `C[C@H]1[C@H](C)CC[C@]2(C(=O)O)CC[C@]3(C)C(=CC[C@@H]4[C@@]5(C)C/C(=C/c6cccnc6)[C@H](O)C(C)(C)[C@@H]5CC[C@]43C)[C@H]12` — outcome?
class 0

Assay result, entry C[C@@H]1COCCN1c1cc(C2(S(C)(=N)=O)CC2)nc(-c2ccnc3[nH]ccc23)n1 (stereo partly specified) — outcome?
class 0

Assay result, entry `CN(C)C(=S)N=Nc1c(O)[nH]c2ccccc12` — outcome?
class 0

Assay result, entry `Nc1cc(N)c(N)cc1N` — outcome?
class 0

Assay result, entry CC(=O)O[C@@H]1CC2C(C)(C)CCCC2(C)C2=C1C(=O)C(C(C)C)=CC2=O (stereo partly specified) — outcome?
class 0

Assay result, entry `CN(C)c1ccc2cc(-c3ccccc3F)c(N)nc2c1` — outcome?
class 0

Assay result, entry COC(=O)CNC(=O)[C@@H](OC)[C@@H]1Cc2cc3cc(OC4CC(OC5CC(O)C(O)C(C)O5)C(O)C(C)O4)c(C)c(O)c3c(O)c2C(=O)[C@H]1OC1CC(OC2CC(OC3CC(C)(O)C(O)C(C)O3)C(O)C(C)O2)C(O)C(C)O1 (stereo partly specified) — outcome?
class 1
